// provenance: patent US20220119492A1

Catalogue of binders with associated IC50
Target: T1, cynomolgus monkey IL-2Rβ subunit (cynomolgus monkey)
T1 construct: Bought protein; also called cyno-IL-2Rβ subunit
T1 sequence (Q38J85 whole entry): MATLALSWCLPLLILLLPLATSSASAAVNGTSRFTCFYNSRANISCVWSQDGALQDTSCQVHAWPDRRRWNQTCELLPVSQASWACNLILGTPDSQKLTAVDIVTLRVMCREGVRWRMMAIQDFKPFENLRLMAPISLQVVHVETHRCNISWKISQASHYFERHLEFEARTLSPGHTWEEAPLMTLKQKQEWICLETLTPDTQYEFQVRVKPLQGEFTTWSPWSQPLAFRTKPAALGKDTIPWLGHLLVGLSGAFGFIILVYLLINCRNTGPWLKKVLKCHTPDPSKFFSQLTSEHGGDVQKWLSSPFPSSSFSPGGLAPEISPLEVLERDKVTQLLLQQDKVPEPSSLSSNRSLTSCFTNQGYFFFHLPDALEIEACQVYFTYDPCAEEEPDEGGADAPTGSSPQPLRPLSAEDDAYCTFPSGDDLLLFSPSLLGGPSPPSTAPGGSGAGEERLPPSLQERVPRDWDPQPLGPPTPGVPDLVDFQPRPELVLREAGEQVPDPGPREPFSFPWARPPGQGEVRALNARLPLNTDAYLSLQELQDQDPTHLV
Experiment: competition ELISA, peptide tracer
reported.endpoint: IC50

[[record]]
binder = "GGELLVDCFRVRVGELCDLFFGGG [SEQ ID NO 3128]"
result = "< 100 µM"

[[record]]
binder = "SEQ ID NO 4177 (peptide) peptide: GGELLVDCFKVKVGELCDLFFGPAPAPAPAPAPAPAPAPAPAPAVVCQDWEGVELCWQGG"
result = "< 100 µM"

[[record]]
binder = "GGRYVHDCFIGQVGDLCDLFLHGG [SEQ ID NO 3171]"
result = "< 100 µM"

